Target: T1, ArtA (Staphylococcus aureus plasmid pSK41, UniProt Q52270 1-62)
T1 sequence: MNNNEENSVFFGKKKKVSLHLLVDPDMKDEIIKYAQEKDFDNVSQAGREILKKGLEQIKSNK
Assay: fluorescence polarization
The binders listed here are annotated with their Kd.
Answer in nM, number only, no unit symbol.

In the examples that follow, each entry is paired with its recorded Kd.
{"columns": ["Binder", "Kd / nM"],
 "data": [
  ["11-mer consensus (dsDNA) DNA 1: ACATGACATGT DNA 2: ACATGTCATGT", 127],
  ["PtraL operator (dsDNA) DNA 1: TGCATTACATGACATGACATGTAAT DNA 2: ATTACATGTCATGTCATGTAATGCA", 23],
  ["22-mer operator (dsDNA) DNA 1: CAAACATGATATGACATGTAAT DNA 2: ATTACATGTCATATCATGTTTG", 62]
]}

// moving on: another record for Kd
Entry under review: PartA operator (dsDNA) DNA 1: TTGTCATGACATGTCATGTGTAA DNA 2: TTACACATGACATGTCATGACAA . Reported Kd? 28

From: paper PMC2777438
